The measured values listed here are drawn from patent US20250289806A1.

# Test system: HEL
# procedure_summary: Cell viability assay, HEL
# Format: cell-based
# condition_parameters: Homo sapiens, acute myeloid leukemia (Example 90 table)
pIC50: −log10 of the molar value.
experimental_readout: pIC50

Request the reported pIC50 associated with c1cc(-c2ccc3nc(N4CCOCC4)ncc3c2)nc(Nc2cnn(C3CCNCC3)c2)n1
< 4.00

---

# system: MYLK4 (Homo sapiens)
# Construct: purchased Reaction Biology Corporation
# Sequence (Q86YV6 1-388): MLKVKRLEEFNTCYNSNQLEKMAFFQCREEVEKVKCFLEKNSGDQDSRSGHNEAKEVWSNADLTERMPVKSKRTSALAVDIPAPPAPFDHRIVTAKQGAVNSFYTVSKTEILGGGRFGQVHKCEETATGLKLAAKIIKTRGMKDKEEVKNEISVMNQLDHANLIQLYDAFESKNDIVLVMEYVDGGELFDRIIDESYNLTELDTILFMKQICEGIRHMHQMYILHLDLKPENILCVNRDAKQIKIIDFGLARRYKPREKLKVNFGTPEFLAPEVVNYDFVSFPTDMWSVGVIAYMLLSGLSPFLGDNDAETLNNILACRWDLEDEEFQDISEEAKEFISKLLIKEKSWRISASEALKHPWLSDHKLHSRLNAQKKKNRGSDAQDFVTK
# procedure_summary: Enzymatic activity assay (Reaction Biology Corporation), MYLK4
# Format: biochemical
# condition_parameters: enzymatic activity assay; read-out: IC50 MYLK4
experimental_readout: IC50

molecule_smiles=OCCn1cc(Nc2nccc(-c3ccc4nc(N5CCOCC5)ncc4c3)n2)cn1 system="MYLK4 (Homo sapiens)" endpoint_value="< 50 nM"
molecule_smiles=c1cc(-c2ccc3nc(N4CCOCC4)ncc3c2)nc(Nc2cnn(C3CCNCC3)c2)n1 system="MYLK4 (Homo sapiens)" endpoint_value="< 50 nM"

# IC50 lookup, item c1cc(-c2ccc3nc(N4CCCC4)ncc3c2)nc(Nc2cnn(C3CCNCC3)c2)n1
< 50 nM
